Biological target: SUV39H2 (Homo sapiens (Human))
Sequence (Q9H5I1 whole entry): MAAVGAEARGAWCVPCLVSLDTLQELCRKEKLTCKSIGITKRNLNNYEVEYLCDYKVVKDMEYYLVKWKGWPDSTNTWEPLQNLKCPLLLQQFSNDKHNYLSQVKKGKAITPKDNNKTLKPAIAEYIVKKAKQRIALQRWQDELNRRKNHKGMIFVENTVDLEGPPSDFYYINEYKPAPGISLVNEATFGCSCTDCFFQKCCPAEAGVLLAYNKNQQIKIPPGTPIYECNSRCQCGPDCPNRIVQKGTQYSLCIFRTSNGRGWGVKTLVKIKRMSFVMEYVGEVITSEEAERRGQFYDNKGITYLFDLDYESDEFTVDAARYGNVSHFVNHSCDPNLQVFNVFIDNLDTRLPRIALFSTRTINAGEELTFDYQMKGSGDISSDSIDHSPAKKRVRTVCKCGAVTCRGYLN
Settings: read-out: IC50 (μM) Suv 39H2 assay; enzyme assay
observable: IC50 (µM)
Give a bare numeral; the unit µM is implied.

molecule="COc1cc(OC)c(-c2cn3ccc(NC(=O)CCN)cc3n2)cc1Cl [Example 168]" observable=IC50 assay_value=0.0283
molecule="COc1cc(OC)c(-c2cn3ccc(C4=CCN(CCC#N)CC4)cc3n2)cc1Cl [Example 109]" observable=IC50 assay_value=0.0417
molecule="COc1cc(OC)c(-c2cn3ccc(N4CCN(c5cccc(F)n5)CC4)cc3n2)cc1Cl [Example 281]" observable=IC50 assay_value=0.0988
molecule="COc1cc(OC)c(-c2cn3ccc(N4CCC(O)CC4)cc3n2)cc1Cl [Example 231]" observable=IC50 assay_value=0.00488
molecule="COc1cc(OC)c(-c2cn3ccc(N4CCN(C5CCCC5)CC4)cc3n2)cc1Cl [Example 239]" observable=IC50 assay_value=0.021

What measured IC50 is associated with COc1cc(OC)c(-c2cn3ccc(N4CCCN(S(=O)(=O)C5CC5)CC4)cc3n2)cc1Cl [Example 187] on SUV39H2 (Homo sapiens (Human))? 0.00574

Try the molecule COc1cc(C)c(Cl)cc1-c1cn2ccc(N3CCOCC3)cc2n1 [Example 230] 0.0183

Next entry: COc1cc(OC)c(-c2cn3ccc(N4CCN(c5ccccn5)CC4)cc3n2)cc1Cl [Example 276] 0.00774

Request: COc1cc(OC)c(-c2cn3ccc(OC4CCN(S(=O)(=O)c5nccn5C)CC4)cc3n2)cc1Cl [Example 288] 0.0928

Then this molecule: COc1cc(OC)c(-c2cn3ccc(N4CCN(C)CC4)cc3n2)cc1Cl [Example 106] 0.0167
